Target: hTLR7 (Homo sapiens)
Construct: host or cells: HEK293
Sequence (Q9NYK1 27-1049): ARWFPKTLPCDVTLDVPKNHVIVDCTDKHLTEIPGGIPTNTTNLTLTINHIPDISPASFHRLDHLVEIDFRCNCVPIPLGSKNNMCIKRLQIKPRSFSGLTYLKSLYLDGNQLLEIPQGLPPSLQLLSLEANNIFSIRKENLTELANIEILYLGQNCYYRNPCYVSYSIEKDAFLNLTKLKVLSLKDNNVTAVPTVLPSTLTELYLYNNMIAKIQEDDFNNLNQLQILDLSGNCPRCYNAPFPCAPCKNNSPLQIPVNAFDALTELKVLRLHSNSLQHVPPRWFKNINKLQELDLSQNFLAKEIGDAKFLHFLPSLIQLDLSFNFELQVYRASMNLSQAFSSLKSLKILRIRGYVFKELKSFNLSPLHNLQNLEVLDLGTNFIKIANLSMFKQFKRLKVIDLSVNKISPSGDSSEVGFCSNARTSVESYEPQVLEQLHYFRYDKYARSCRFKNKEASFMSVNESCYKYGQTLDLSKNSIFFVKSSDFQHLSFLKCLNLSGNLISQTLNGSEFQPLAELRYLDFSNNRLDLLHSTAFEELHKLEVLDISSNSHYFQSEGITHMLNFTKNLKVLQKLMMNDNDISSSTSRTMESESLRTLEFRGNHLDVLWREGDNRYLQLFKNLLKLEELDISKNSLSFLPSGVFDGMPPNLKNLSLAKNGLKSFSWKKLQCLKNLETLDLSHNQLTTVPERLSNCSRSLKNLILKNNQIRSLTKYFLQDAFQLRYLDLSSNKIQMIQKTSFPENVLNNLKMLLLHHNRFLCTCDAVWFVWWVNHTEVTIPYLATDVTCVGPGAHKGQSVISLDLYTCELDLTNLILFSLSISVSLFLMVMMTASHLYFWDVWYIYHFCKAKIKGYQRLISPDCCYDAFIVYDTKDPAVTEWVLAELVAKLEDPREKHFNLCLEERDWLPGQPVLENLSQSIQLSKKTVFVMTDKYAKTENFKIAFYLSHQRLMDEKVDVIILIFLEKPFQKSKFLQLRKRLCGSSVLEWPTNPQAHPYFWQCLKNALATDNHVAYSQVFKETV
Assay: TLR7 agonist activity, HEK293 hTLR7 SEAP reporter assay
Type: cell-based
Settings: HEK293 cotransfected with hTLR7 and inducible SEAP reporter gene, 24 h treatment; average ± SD of three independent replicates; n.a. = not active; read-out: EC50
Quick reference for EC50 among some compounds

Use the examples below as a reference point.
compound	observed.measurement
CC1CCCN(c2nc(C(F)(F)F)nc3onc(-c4ccc(C(F)(F)F)cc4)c23)C1 (stereo not drawn) [Compound 16a]	> 150 µM
CN1CCN(c2nc(C(F)(F)F)nc3onc(-c4ccc(F)cc4)c23)CC1 [Compound 21j]	> 150 µM

Turning now to a further record.
Look at this compound and give its reported EC50. Fc1ccc(-c2noc3nc(C(F)(F)F)nc(N4CCCC4)c23)cc1 [Compound 21v]
> 150 µM

Origin of values: paper PMC10795023
